System: KM12 colon
Assay: NCI tumour cell line growth inhibition, 48 h
measured attribute: TGI

compound=CN/N=C(/C=C/c1ccccc1)C(C)C measured_attribute=TGI result="> 100 µM"
compound=O=S(=O)(Nc1ccc2ccccc2c1)N1CCCCC1 measured_attribute=TGI result="17.2 µM"
compound="O=C(Nc1ccccc1SC(/C=C/NNC1=NC(c2ccccc2)C(c2ccccc2)=NN1)c1ccccc1)c1ccc(Cl)cc1Cl (stereo not drawn)" measured_attribute=TGI result="> 100 µM"
compound="COC(=O)C(=O)C(CC(=O)Nc1c(C)cccc1C)C(=O)OC (stereo not drawn)" measured_attribute=TGI result="> 100 µM"
compound=C#CC#CC#CC#CC#CC#CC#CC#CC[C@@H]1OC[C@H](COC(=O)O[C@@H](C(=O)O[C@H]2C[C@@]3(O)[C@@H](OC(=O)c4ccccc4)[C@@H]4[C@]5(OC(C)=O)CO[C@@H]5C[C@H](O)[C@@]4(C)C(=O)[C@H](OC(C)=O)C(=C2C)C3(C)C)[C@@H](NC(=O)c2ccccc2)c2ccccc2)O1 measured_attribute=TGI result="> 25 µM"
compound="O=C1NC(N/N=C\\C(O)C(O)C(O)C(O)CO)=N/C1=C\\c1ccc(Cl)cc1 (stereo not drawn)" measured_attribute=TGI result="> 80.7 µM"
compound="O=C(OC1C(Oc2ccccc2COC(=O)C2(O)C=CCCC2=O)OC(CO)C(O)C1O)c1ccccc1 (stereo not drawn)" measured_attribute=TGI result="> 100 µM"
compound=O=C(Nc1ccccc1C(=O)N/N=C(\c1ccccc1)c1ccccn1)c1ccccc1 measured_attribute=TGI result="> 100 µM"

* * *

System: PC-3 prostate
Assay: NCI tumour cell line growth inhibition, 48 h
measured attribute: TGI

molecule=CC(C)NC1(C(N)=O)CCN(Cc2ccccc2)CC1 result="> 100 µM"
molecule=COc1ccc2c(c1OC)OC[C@@H](C1=CC(=O)C=C(O)C1=O)C2 result="26.8 µM"
molecule=c1cncc(CNCCN2CCNCC2)c1 result="> 100 µM"
molecule=O=S(=O)(Nc1ccc2ccccc2c1)N1CCCCC1 result="41.5 µM"
molecule=CC(C)(C(=O)NCC(F)(F)C(F)(F)F)C(=O)N[C@@H]1C(=O)Nc2ccccc2-c2ccccc21 result="> 100 µM"
molecule="O=C1NC(N/N=C\\C(O)C(O)C(O)C(O)CO)=N/C1=C\\c1ccc(Cl)cc1 (stereo unspecified)" result="18.5 µM"
molecule=CN(C)c1nc2n(CCO)ccnc-2c(=O)n1 result="> 100 µM"
molecule=CN1CCN(Cc2nc3cccc4c3c([n+]2[O-])-c2ccccc2-4)CC1 result="48.6 µM"
molecule=COc1ccc(N)c(C(=O)CCNC(C)=O)c1 result="> 100 µM"
molecule=c1ccc2c(c1)N[C@@H]1c3[nH]c4ccccc4c3CC[C@H]21 result="24.6 µM"
molecule=Cc1cc(O)c(C=NC(=S)c2ccncc2)c(=O)o1 result="> 100 µM"

* * *

As shown below, each of these compounds has a reported GI50 value.
Test system: HCC-2998 colon
Test: NCI tumour cell line growth inhibition, 48 h
measured attribute: GI50

compound="CCCCCCC(O)(c1ccc(F)cc1)C(CN1CCOCC1)c1ccccc1 (stereo unspecified)" system="HCC-2998 colon" result="13.8 µM"
compound=COc1ccc(/C=C(/C(=O)N2CCCCC2)c2cc(OC)c(OC)c(OC)c2)cc1 system="HCC-2998 colon" result="2.82 µM"
compound=N=C(N)c1ccc(-c2ccc(-c3ccccc3)s2)s1 system="HCC-2998 colon" result="1.05 µM"
compound="CCC(C)CN=C(N)c1ccc(N2CCN(c3ccc(C(N)=NCC(C)CC)cc3)CC2)cc1 (stereo unspecified)" system="HCC-2998 colon" result="11.5 µM"
compound=CC[N-]c1nnnn1CC.[Au+].c1ccc([PH+](c2ccccc2)c2ccccc2)cc1 system="HCC-2998 colon" result="1.68 µM"
compound=O=Cc1cn(Cc2ccccc2)c2ccccc12 system="HCC-2998 colon" result="21.9 µM"
compound=COc1cc(-c2cc(-c3nc4ccc(F)cc4[nH]3)[nH]n2)cc(OC)c1OC system="HCC-2998 colon" result="5.96 µM"
compound="O=C1C=CC2(NN=C(c3ccccc3)N2c2ccccc2)c2cccc(O)c21 (stereo unspecified)" system="HCC-2998 colon" result="3.83 µM"
compound=CCOC(=O)c1cc(C(=O)c2cc(OC)c(OC)c(OC)c2)n2nc(C)ccc12 system="HCC-2998 colon" result="0.493 µM"
compound=COc1cc2nccc(Oc3ccc(NC(=O)C4(C(=O)Nc5ccc(F)cc5)CC4)cc3)c2cc1OC(=O)c1ccc(N)cc1 system="HCC-2998 colon" result="3.88 µM"
compound=CCCCCCCCCCCCCCCC(=O)Nc1ccn([C@@H]2O[C@H](CO)[C@@H](O)[C@@H]2C#N)c(=O)n1 system="HCC-2998 colon" result="14.5 µM"
